Tested on: SW872
Assay: relative viability vs DMSO control (72 h) (fraction); higher = more viable cells
Conditions: 0.01372 µM
quantity: relative viability

Please give the measured relative viability for this compound: CC(C)N1CCN(Cc2cnc(-c3cc(-c4cccc5[nH]ccc45)cc4[nH]ncc34)o2)CC1
0.916

Please give the measured relative viability for this compound: C[C@@H](c1ccc2nccn2c1)n1nnc2ncc(-c3cnn(C)c3)nc21
1.06

Please give the measured relative viability for this compound: CC[C@H](Nc1ncnc2[nH]cnc12)c1nc2cccc(F)c2c(=O)n1-c1ccccc1
1.11

Please give the measured relative viability for this compound: O=C(Cc1ccc(-c2ccc(OCCN3CCOCC3)cc2)cn1)NCc1ccccc1
1.04

---

Give relative viability for every item shown.
Test system: KHOS-NP
Experiment: relative viability vs DMSO control (72 h) (fraction); higher = more viable cells
Conditions: 0.1235 µM

Please give the measured relative viability for this compound: Cc1cc(C)c(/C=C2\C(=O)Nc3ccccc32)[nH]1
1.04

Please give the measured relative viability for this compound: CC(C)NC(=O)C1CCC(n2c(NC(=O)c3ccc(F)cc3)nc3ccc(CN4CCC(C(C)(C)O)CC4)cc32)CC1 (centres undefined)
1.1

Please give the measured relative viability for this compound: Nc1cc(C(F)(F)F)c(-c2cc(N3CCOCC3)nc(N3CCOCC3)n2)cn1
1.07

Please give the measured relative viability for this compound: COc1c(OCCCN2CCOCC2)ccc2c1N=C(NC(=O)c1cnc(N)nc1)N1CCN=C21
1

Please give the measured relative viability for this compound: COc1cc2c(Oc3ccc4[nH]c(C)cc4c3F)ncnc2cc1OCCCN1CCCC1
1.04

Please give the measured relative viability for this compound: C[C@@H](c1ccc2nccn2c1)n1nnc2ncc(-c3cnn(C)c3)nc21
1.07

Please give the measured relative viability for this compound: Cc1ccc(NC(=O)c2ccc(CN3CCN(C)CC3)cc2)cc1Nc1nc(-c2cccnc2)cs1
1.04

Please give the measured relative viability for this compound: C=CC(=O)N1CCC[C@@H](n2nc(-c3ccc(Oc4ccccc4)cc3)c3c(N)ncnc32)C1
1.05

Please give the measured relative viability for this compound: Cc1cc(Nc2ncnc3ccc(NC4=NC(C)(C)CO4)cc23)ccc1Oc1ccn2ncnc2c1
1.12

---

Test system: G401
Assay: relative viability vs DMSO control (72 h) (fraction); higher = more viable cells
Conditions: 10 µM
quantity: relative viability

Please give the measured relative viability for this compound: Cn1cnc2c(F)c(Nc3ccc(Br)cc3F)c(C(=O)NOCCO)cc21
0.584

Please give the measured relative viability for this compound: Cc1nc(-c2cn3c(n2)-c2ccc(-c4cnn(C(C)(C)C(N)=O)c4)cc2OCC3)n(C(C)C)n1
0.347

Please give the measured relative viability for this compound: C[C@@H]1CCN(C(=O)CC#N)C[C@@H]1N(C)c1ncnc2[nH]ccc12
1.06

Please give the measured relative viability for this compound: CCc1cc2c(cc1N1CCC(N3CCOCC3)CC1)C(C)(C)c1[nH]c3cc(C#N)ccc3c1C2=O
0.894

---

System: G401
Test: relative viability vs DMSO control (72 h) (fraction); higher = more viable cells
Conditions: 0.00051 µM
The label is true (1) for relative viability below 1 and false (0) for relative viability equal to or exceeding 1.

Decide: relative viability of COc1cc2nccc(Oc3ccc(NC(=O)Nc4cc(C)on4)c(Cl)c3)c2cc1OC [Tivozanib] strictly below 1?
false (0)

Decide: relative viability of Cn1cc(-c2cc3c(N4CCN(c5ncc([C@@](C)(N)c6ccc(F)cc6)cn5)CC4)ncnn3c2)cn1 [Avapritinib] strictly below 1?
true (1)

Decide: relative viability of CC[C@H](Nc1ncnc2[nH]cnc12)c1nc2cccc(F)c2c(=O)n1-c1ccccc1 [Idelalisib] strictly below 1?
false (0)

Decide: relative viability of COc1cc2c(Oc3ccc4[nH]c(C)cc4c3F)ncnc2cc1OCCCN1CCCC1 [Cediranib] strictly below 1?
false (0)
